From: patent US20250320312A1

system under test: Peptide 1: Biotin-…-[Tyr(PC)]-acid
Sequence (peptide, as listed by the source): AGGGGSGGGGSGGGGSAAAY
protocol details: scFv ELISA
readout type: OD450 (OD450)
I only need the number, in OD450, no unit after it.

- binder: "PcOxP_DB03_F01 (scFv, V domains shown, scFv in periplasmic extract) VH: EVQLLESGGGLVQPGGSLRLSCAASGFTFNDFYMEWVRQAPGKGLEWVAASRNKANDYTTEYADSVKGRFTISRDNSKNTLYLQMNSLRAEDTAVYYCARDYYGSSYWYFDVWGQGTLVTVSS VL: DIQMTQSPSSLSASVGDRVTITCEASESLYSSKHKVHYLAWYQQKPGKAPKLLIYGASNRLIGVPSRFSGSGSGTDFTLTISSLQPEDFATYYCAQFYEYPLTFGGGTKVEIK"
  readout units: "OD450"
  readout value: 0.58

For the next question, use this binder.
For PcOxP_DB02_F10 (scFv, V domains shown, scFv in periplasmic extract) VH: EVQLLESGGGLVQPGGSLRLSCAASGFTFSDQYMEWVRQAPGKGLEWVAASRNKANDYTTEYADSVKGRFTISRDNSKNTLYLQMNSLRAEDTAVYYCARDYYGSSYWYFDVWGQGTLVTVSS VL: DIVMTQSPDSLAVSLGERATINCTSSQSVLSSKHNKNYLAWYQQKPGQPPKLLIYGASNRYWGVPDRFSGSGSGTDFTLTISSLQAEDVAVYYCAQFYSYPLTFGGGTKVEIK , what is its reported OD450?
0.51
